The origin of these recorded values is paper PMC11784839.

av Z values for the molecules below.
Biological target: UniProt P10636
Sequence (P10636 623-695 limits assumed): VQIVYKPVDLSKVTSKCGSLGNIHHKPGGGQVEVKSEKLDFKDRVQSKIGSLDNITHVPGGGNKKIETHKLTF
Assay: MCE Phenols Library screening, tau biosensor cell seeding assay (AvZ)
Assay type: cell-based
Settings: average Z score of the two replicates, MCE Phenols Library screen
Please give the numeric answer without any surrounding text.

The cases that follow already have their av Z on record.
molecule | target_or_test_system | av Z
COc1c2c3c4c(c(OC)c(=O)c5c(O)cc(OC)c(c6c(OC)cc(O)c(c1=O)c63)c54)[C@@H](C(C)=O)[C@@](C)(O)C2 | UniProt P10636 | -1.44
CCCC(=O)c1c(O)c(Cc2c(O)c(Cc3c(O)c(C)c(OC)c(C(=O)CCC)c3O)c(O)c(C(=O)[C@@H](C)CC)c2O)c(O)c(C)c1OC | UniProt P10636 | -1.13
COc1cc(O)c2c(=O)c(O[C@@H]3O[C@H](CO)[C@@H](O)[C@H](O)[C@H]3O)c(-c3ccc(O[C@@H]4O[C@H](CO)[C@@H](O)[C@H](O)[C@H]4O)cc3)oc2c1 [Complanatuside] | UniProt P10636 | -0.385
COc1ccc(-c2oc3cc(O)cc(O)c3c(=O)c2O)cc1 [Kaempferide] | UniProt P10636 | -0.576
C[C@@H]1O[C@@H](O[C@H]2[C@H](Oc3c(-c4ccc(O)cc4)oc4cc(O)cc(O)c4c3=O)O[C@H](CO)[C@@H](O)[C@@H]2O)[C@H](O)[C@H](O)[C@H]1O [Kaempferol 3-neohesperidoside] | UniProt P10636 | -1.002

Switching to the query record.
Prompt line: # query: av Z of entry C[C@@H]1O[C@@H](Oc2cc(O)c3c(=O)c(O[C@@H]4O[C@@H](C)[C@H](O)[C@@H](O)[C@H]4O)c(-c4ccc(O)cc4)oc3c2)[C@H](O)[C@H](O)[C@H]1O
Response line: -0.924
